assayed.target: human CB2R (Homo sapiens)
Construct: host or cells: CHO cells
Sequence (P34972 whole entry): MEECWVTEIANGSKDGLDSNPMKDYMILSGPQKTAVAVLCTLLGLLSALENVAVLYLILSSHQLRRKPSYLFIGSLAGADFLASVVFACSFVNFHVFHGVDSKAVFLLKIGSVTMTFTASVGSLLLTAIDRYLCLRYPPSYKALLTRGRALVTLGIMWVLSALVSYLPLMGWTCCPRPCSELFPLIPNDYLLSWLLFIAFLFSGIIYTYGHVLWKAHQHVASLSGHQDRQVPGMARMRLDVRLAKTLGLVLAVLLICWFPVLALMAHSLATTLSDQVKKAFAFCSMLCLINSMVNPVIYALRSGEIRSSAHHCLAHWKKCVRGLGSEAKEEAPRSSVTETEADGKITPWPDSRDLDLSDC
assay.overview: CB2R mediated modulation of cAMP synthesis
Type: cell-based
experimental.conditions: CB2 EC50 (nM), CHO cells expressing human CB2R; inhibition of forskolin-stimulated cAMP synthesis; agonist
attribute.measured: EC50 (nM)
Kindly answer with a numeric value in nM, unit omitted.

EC50 lookup needed for CC(C)(C)c1cc(NC(=O)[C@@H]2CCN2C2CCOCC2)no1 [drawing 132] , thanks.
18

How about this compound: `CC(C)(C)c1cc(NC(=O)[C@@H]2CCN2Cc2ccc(F)c(F)c2)on1`
14

How about this compound: `CCc1sc(NC(=O)[C@@H]2CCN2c2ccc(C(F)(F)F)cn2)nc1-c1ccccc1`
128

How about this compound: `O=C(Nc1nc2cc(Cl)ccc2s1)[C@@H]1CCN1C1CCOCC1`
86

How about this compound: `CCc1sc(NC(=O)[C@@H]2CCN2C2CCOCC2)nc1-c1ccccc1`
116

How about this compound: `O=C(Nc1nc(C2CCCCC2)cs1)[C@@H]1CCN1C1CCOCC1`
56

How about this compound: `CC(C)(CO)c1cc(NC(=O)[C@@H]2CCN2c2ccc(F)cc2)on1`
22

How about this compound: `CC(C)(C)c1cc(NC(=O)[C@@H]2CCN2C2CCCCC2)on1`
0.08

How about this compound: `O=C(Nc1nc(-c2ccc(F)c(F)c2)cs1)[C@@H]1CCN1C1CCOCC1`
203

How about this compound: `CC(C)(CO)c1cc(NC(=O)[C@@H]2CCN2c2ncc(C(F)(F)F)cc2Cl)on1`
0.12

How about this compound: `CC(C)(C)Cc1cc(NC(=O)[C@@H]2CCN2C2CCOCC2)on1`
243

How about this compound: `CC(C)(C)c1cc(NC(=O)[C@@H]2CCN2S(=O)(=O)c2ccc(S(C)(=O)=O)cc2)no1`
197

How about this compound: `CC(C)(C)c1cc(NC(=O)[C@@H]2CCN2c2ccc(Cl)cc2)on1`
0.75

How about this compound: `COCC(C)(C)c1cc(NC(=O)[C@@H]2CCN2c2ccc(F)cc2)on1`
5.6

How about this compound: `O=C(Nc1cc(C(F)(F)F)no1)[C@@H]1CCN1c1ccc(Cl)cc1`
43

How about this compound: `CC(C)(C)c1cc(NC(=O)[C@@H]2CCN2c2ccc(C(F)(F)F)cn2)on1`
0.67

How about this compound: `CC(C)(C)c1cc(NC(=O)[C@@H]2CCN2c2ccc(Cl)cc2)no1`
1.7

How about this compound: `CC(C)N1CC[C@H]1C(=O)Nc1cc(C(C)(C)C)no1`
26

How about this compound: `CCCS(=O)(=O)N1CC[C@H]1C(=O)Nc1cc(C(C)(C)C)on1`
157

How about this compound: `CC(C)(C)c1cc(NC(=O)[C@@H]2CCN2C2CCCC2)on1`
6.6

How about this compound: `CC(C)(CO)c1cc(NC(=O)[C@@H]2CCN2c2ccc(C(F)(F)F)cn2)on1`
18
